Experiment notes: HPLC of ADS, 5-ASA and Ac-5-ASA in serum
Assay type: in vivo, patients
Settings: Olsalazine dose/day 2 g (n=14); ulcerative colitis; mean±SD; read-out: Concentrations in serum
Measured metric: concentration (µM)

| Molecule | Unit abbrev | Assay result |
| --- | --- | --- |
| O=C(O)c1cc(N=Nc2ccc(O)c(C(=O)O)c2)ccc1O [Olsalazine, disodium-azodisalicylate] | µM | 16 |

###

Experiment notes: HPLC of ADS, 5-ASA and Ac-5-ASA in serum
Assay type: in vivo, patients
Settings: Olsalazine dose/day 1 g (n=9); ulcerative colitis; mean±SD of average in each patient; read-out: Concentrations in serum

| Compound | concentration |
| --- | --- |
| O=C(O)c1cc(N=Nc2ccc(O)c(C(=O)O)c2)ccc1O [Olsalazine, disodium-azodisalicylate] | 9.2 µM |

###

Experiment notes: HPLC of ADS, 5-ASA and Ac-5-ASA in faecal dialysates (equilibrium in vivo dialysis of faeces)
Set-up: species or system patients
Settings: Olsalazine dose/day 1 g (n=7); ulcerative colitis; mean±SD of averages in each patient; read-out: Concentrations in faecal dialysates

| Compound | concentration |
| --- | --- |
| O=C(O)c1cc(N=Nc2ccc(O)c(C(=O)O)c2)ccc1O [Olsalazine, disodium-azodisalicylate] | 100 µM |

###

Experiment notes: HPLC of ADS, 5-ASA and Ac-5-ASA in serum
Type: in vivo, patients
Settings: Olsalazine dose/day 4 g (n=20); ulcerative colitis; mean±SD; read-out: Concentrations in serum

| Molecule | concentration (µM) |
| --- | --- |
| O=C(O)c1cc(N=Nc2ccc(O)c(C(=O)O)c2)ccc1O [Olsalazine, disodium-azodisalicylate] | 25 |

###

Experiment notes: HPLC of ADS, 5-ASA and Ac-5-ASA in faecal dialysates (equilibrium in vivo dialysis of faeces)
Parameters: species or system patients
Settings: Olsalazine dose/day 3 g (n=14); ulcerative colitis; mean±SD; read-out: Concentrations in faecal dialysates
Experimental: Before entry, at the two week's visit, and at the six and 12 months' visits equilibrium in vivo dialysis of faeces as well as equilibrium in vivo dialysis of rectum were done prior to endoscopy of rectum and sigmoid colon with biopsies. […] The lower detection limits in serum and in faecal dialysates were 1.0 umol/I and 6.0 umol/l, respectively. Prostaglandin E2 was measured by the radioimmunologic method, referred to above, validated by gas chromatography-mass spectrometry. […]

| Compound | Unit abbrev | concentration |
| --- | --- | --- |
| O=C(O)c1cc(N=Nc2ccc(O)c(C(=O)O)c2)ccc1O [Olsalazine, disodium-azodisalicylate] | µM | 400 |
